- System: SK-OV-3 ovarian
Outcome codes: y for active, n for inactive

* N.N.N.N.N.N.[I-].[Os] | n
* C#CCN=C(N/N=C/c1ccc([N+](=O)[O-])o1)NS(=O)(=O)c1cc(C)c(Cl)cc1SCC(N)=O | n
* CC(=O)O[C@H]1C(=O)O[C@@H]2C[C@H]3C(C)=CC(=O)[C@@H](O)[C@]3(C)[C@H]3[C@@]4(O)OC[C@]32[C@@H]1[C@@H](C)[C@H]4O | y
* COc1ccc(/C=C2\CN(Cc3cn(CCCNc4ccnc5cc(Cl)ccc45)nn3)C/C(=C\c3ccc(OC)c(OC)c3)C2=O)cc1OC | n
